Please provide measured viability, T/C for the entries that follow.
- System: 521955-158-R2-J5-PDC complex spheroid growth
- procedure-summary: Anticancer human tumor 521955-158-R2-J5-PDC patient-derived pancreatic carcinoma cell line growth inhibition [AhR]
- experimental-parameters: second compound 1 µM; first compound 3.16 µM; stronger effect = lower value
Answers are plain numbers, in %.

NS(=O)(=O)OCC1CC(n2ccc3c(NC4CCc5ccccc54)ncnc32)CC1O (configuration not stated) + CC(CO)NC(=O)c1cc(-c2ccc(Cl)cc2)nn(-c2cnn(C)c2)c1=O ... 21.6

Record viability, T/C for all entries; do not skip any.
1. COc1cccc2c1C(=O)c1c(O)c3c(c(O)c1C2=O)CC(O)(C(=O)CO)CC3OC1CC(N)C(O)C(C)O1 (configuration not stated) + CC(CO)NC(=O)c1cc(-c2ccc(Cl)cc2)nn(-c2cnn(C)c2)c1=O
2. Nc1ccn(C2OC(CO)C(O)C2(F)F)c(=O)n1 (configuration not stated) + Cc1ccccc1N=Nc1ccc(NC(=O)c2ccnn2C)c(C)c1
3. O=C(C=Cc1cccc(S(=O)(=O)Nc2ccccc2)c1)NO + Cc1ccccc1N=Nc1ccc(NC(=O)c2ccnn2C)c(C)c1
4. CC1COCCN1c1cc(C2(S(C)(=N)=O)CC2)nc(-c2ccnc3[nH]ccc23)n1 (configuration not stated) + CC(CO)NC(=O)c1cc(-c2ccc(Cl)cc2)nn(-c2cnn(C)c2)c1=O
5. Nc1ccn(C2OC(CO)C(O)C2(F)F)c(=O)n1 (configuration not stated) + CC(CO)NC(=O)c1cc(-c2ccc(Cl)cc2)nn(-c2cnn(C)c2)c1=O
6. COc1cccc2c1C(=O)c1c(O)c3c(c(O)c1C2=O)CC(O)(C(=O)CO)CC3OC1CC(N)C(O)C(C)O1 (configuration not stated) + Cc1ccccc1N=Nc1ccc(NC(=O)c2ccnn2C)c(C)c1
7. COc1cccc2c1C(=O)c1c(O)c3c(c(O)c1C2=O)CC(O)(C(=O)CO)CC3OC1CC(N)C(O)C(C)O1 (configuration not stated) + Cc1cncc(-c2nc(NCCc3c[nH]c4ccccc34)c3ncn(C(C)C)c3n2)c1
8. CC1COCCN1c1cc(C2(S(C)(=N)=O)CC2)nc(-c2ccnc3[nH]ccc23)n1 (configuration not stated) + Cc1cncc(-c2nc(NCCc3c[nH]c4ccccc34)c3ncn(C(C)C)c3n2)c1

1. 2.9
2. 13.5
3. 59.5
4. 24.8
5. 14.2
6. 2.47
7. 5.39
8. 33.5

Record viability, T/C for all entries; do not skip any.
1. CC(C)c1c(-c2ccccc2)nc2c(C#N)c[nH]n2c1=O + Cc1cncc(-c2nc(NCCc3c[nH]c4ccccc34)c3ncn(C(C)C)c3n2)c1
2. NS(=O)(=O)OCC1CC(n2ccc3c(NC4CCc5ccccc54)ncnc32)CC1O (configuration not stated) + Cc1cncc(-c2nc(NCCc3c[nH]c4ccccc34)c3ncn(C(C)C)c3n2)c1
3. CC1(C)CCC(CN2CCN(c3ccc(C(=O)NS(=O)(=O)c4ccc(NCC5CCOCC5)c([N+](=O)[O-])c4)c(Oc4cnc5[nH]ccc5c4)c3)CC2)=C(c2ccc(Cl)cc2)C1 + CC(CO)NC(=O)c1cc(-c2ccc(Cl)cc2)nn(-c2cnn(C)c2)c1=O

1. 106
2. 38
3. 124

* * *

- System: 521955-158-R2-J5-PDC complex spheroid growth
- procedure-summary: Anticancer human tumor 521955-158-R2-J5-PDC cell line growth inhibition [AhR];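 also: spheroids mix tumor cells with HUVEC endothelium and human MSC stroma; luminescence taken as viability surrogate after a week of drug exposure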
- experimental-parameters: second compound 0.1 µM; first compound 0.949 µM; stronger effect = lower value
Please provide measured viability, T/C for the entries that follow.
Give bare numbers, in %.

O=C(C=Cn1cnc(-c2cc(C(F)(F)F)cc(C(F)(F)F)c2)n1)NNc1cnccn1 + CC(CO)NC(=O)c1cc(-c2ccc(Cl)cc2)nn(-c2cnn(C)c2)c1=O ... 39.4
CCN(c1cc(-c2ccc(CN3CCOCC3)cc2)cc(C(=O)NCc2c(C)cc(C)[nH]c2=O)c1C)C1CCOCC1 + CC(CO)NC(=O)c1cc(-c2ccc(Cl)cc2)nn(-c2cnn(C)c2)c1=O ... 81.1
O=C(C=Cn1cnc(-c2cc(C(F)(F)F)cc(C(F)(F)F)c2)n1)NNc1cnccn1 + Cc1cncc(-c2nc(NCCc3c[nH]c4ccccc34)c3ncn(C(C)C)c3n2)c1 ... 37.1
CCN(c1cc(-c2ccc(CN3CCOCC3)cc2)cc(C(=O)NCc2c(C)cc(C)[nH]c2=O)c1C)C1CCOCC1 + Cc1cncc(-c2nc(NCCc3c[nH]c4ccccc34)c3ncn(C(C)C)c3n2)c1 ... 117
O=C(C=Cn1cnc(-c2cc(C(F)(F)F)cc(C(F)(F)F)c2)n1)NNc1cnccn1 + Cc1ccccc1N=Nc1ccc(NC(=O)c2ccnn2C)c(C)c1 ... 40.2

# ---- query compound ----
Lab book: viability, T/C of CCN(c1cc(-c2ccc(CN3CCOCC3)cc2)cc(C(=O)NCc2c(C)cc(C)[nH]c2=O)c1C)C1CCOCC1 + Cc1ccccc1N=Nc1ccc(NC(=O)c2ccnn2C)c(C)c1 noted as 74.4

* * *

- Tested on: 521955-158-R2-J5-PDC complex spheroid growth
- procedure-summary: Anticancer human tumor 521955-158-R2-J5-PDC cell line growth inhibition [AhR];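 also: spheroids mix tumor cells with HUVEC endothelium and human MSC stroma; luminescence taken as viability surrogate after a week of drug exposure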
- experimental-parameters: second compound 3.16 µM; first compound 10 µM; stronger effect = lower value
Please provide measured viability, T/C for the entries that follow.

# example entries with known answers
COc1cccc2c1C(=O)c1c(O)c3c(c(O)c1C2=O)CC(O)(C(=O)CO)CC3OC1CC(N)C(O)C(C)O1 (stereo unspecified) + CC(CO)NC(=O)c1cc(-c2ccc(Cl)cc2)nn(-c2cnn(C)c2)c1=O ... 14%
CC1COCCN1c1cc(C2(S(C)(=N)=O)CC2)nc(-c2ccnc3[nH]ccc23)n1 (stereo unspecified) + Cc1ccccc1N=Nc1ccc(NC(=O)c2ccnn2C)c(C)c1 ... 15.5%
Nc1ccccc1NC(=O)c1ccc(CNC(=O)OCc2cccnc2)cc1 + Cc1cncc(-c2nc(NCCc3c[nH]c4ccccc34)c3ncn(C(C)C)c3n2)c1 ... 27.2%

Record viability, T/C for all entries; do not skip any.
1. Nc1ccn(C2OC(CO)C(O)C2(F)F)c(=O)n1 (stereo unspecified) + Cc1cncc(-c2nc(NCCc3c[nH]c4ccccc34)c3ncn(C(C)C)c3n2)c1
2. Nc1ccn(C2OC(CO)C(O)C2(F)F)c(=O)n1 (stereo unspecified) + Cc1ccccc1N=Nc1ccc(NC(=O)c2ccnn2C)c(C)c1
3. COc1ccc([C@@H](O)c2cc(-c3ncnc4cc(N5CCOCC5)ccc34)c(F)cc2Cl)nn1 + Cc1cncc(-c2nc(NCCc3c[nH]c4ccccc34)c3ncn(C(C)C)c3n2)c1

26.1%
14.4%
65.9%

* * *

- System: 521955-158-R2-J5-PDC complex spheroid growth
- procedure-summary: Anticancer human tumor 521955-158-R2-J5-PDC cell line growth inhibition [AhR];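 also: spheroids mix tumor cells with HUVEC endothelium and human MSC stroma; luminescence taken as viability surrogate after a week of drug exposure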
- experimental-parameters: second compound 10 µM; first compound 0.003 µM; stronger effect = lower value
measured-endpoint: viability, T/C (%)
Give bare numbers, in %.

# example entries with known answers
CC(C)CC(NC(=O)C(Cc1ccccc1)NC(=O)c1cnccn1)B(O)O (stereo not drawn) + Cc1ccccc1N=Nc1ccc(NC(=O)c2ccnn2C)c(C)c1 ... 153
CC(C)CC(NC(=O)C(Cc1ccccc1)NC(=O)c1cnccn1)B(O)O (stereo not drawn) + CC(CO)NC(=O)c1cc(-c2ccc(Cl)cc2)nn(-c2cnn(C)c2)c1=O ... 68.3

# ---- query compound ----
521955-158-R2-J5-PDC complex spheroid growth data for Nc1ncn(C2CC(O)C(CO)S2)c(=O)n1 (stereo not drawn) + CC(CO)NC(=O)c1cc(-c2ccc(Cl)cc2)nn(-c2cnn(C)c2)c1=O ; its viability, T/C: 81.3

* * *

Please provide measured viability, T/C for the entries that follow.
- Test system: 521955-158-R2-J5-PDC complex spheroid growth
- procedure-summary: Anticancer human tumor 521955-158-R2-J5-PDC cell line growth inhibition [AhR];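 also: spheroids mix tumor cells with HUVEC endothelium and human MSC stroma; luminescence taken as viability surrogate after a week of drug exposure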
- experimental-parameters: second compound 10 µM; first compound 0.003 µM; stronger effect = lower value
Numbers only, in %.

# example entries with known answers
CCc1c2c(nc3ccc(O)cc13)-c1cc3c(c(=O)n1C2)COC(=O)[C@]3(O)CC + Cc1cncc(-c2nc(NCCc3c[nH]c4ccccc34)c3ncn(C(C)C)c3n2)c1 ... 49.8
CCc1c2c(nc3ccc(O)cc13)-c1cc3c(c(=O)n1C2)COC(=O)[C@]3(O)CC + Cc1ccccc1N=Nc1ccc(NC(=O)c2ccnn2C)c(C)c1 ... 89.8
CC(C)CC(NC(=O)C(Cc1ccccc1)NC(=O)c1cnccn1)B(O)O (stereo unspecified) + Cc1cncc(-c2nc(NCCc3c[nH]c4ccccc34)c3ncn(C(C)C)c3n2)c1 ... 126
CCc1c2c(nc3ccc(O)cc13)-c1cc3c(c(=O)n1C2)COC(=O)[C@]3(O)CC + CC(CO)NC(=O)c1cc(-c2ccc(Cl)cc2)nn(-c2cnn(C)c2)c1=O ... 23.6
Nc1ncn(C2CC(O)C(CO)S2)c(=O)n1 (stereo unspecified) + Cc1cncc(-c2nc(NCCc3c[nH]c4ccccc34)c3ncn(C(C)C)c3n2)c1 ... 143

521955-158-R2-J5-PDC complex spheroid growth data for Nc1ncn(C2CC(O)C(CO)S2)c(=O)n1 (stereo unspecified) + Cc1ccccc1N=Nc1ccc(NC(=O)c2ccnn2C)c(C)c1 ; its viability, T/C: 170
